Listing: IC50 of selected compounds
- Test system: MKN-45;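 further: growth inhibition of human MKN-45 cells, measured with a cell viability assay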
- experiment notes: cells
- Assay type: functional, cell-based
- assay conditions: Homo sapiens
- Description: SANGER: Inhibition of human MKN45 cell growth in a cell viability assay.

Study these solved cases before continuing.
// query Identify measured IC50 corresponding to `COC(=O)[C@H](CCSC)NC(=O)c1ccc(NC[C@@H](N)CS)cc1-c1ccccc1`
// result > 1.02 µM

// query Identify measured IC50 corresponding to NC(=O)Nc1cc(-c2cccc(F)c2)sc1C(=O)N[C@H]1CCCNC1 [AZD-7762]
// result 0.28 µM

// query Identify measured IC50 corresponding to CC1(C)CCC(c2ccc(Cl)cc2)=C(CN2CCN(c3ccc(C(=O)NS(=O)(=O)c4ccc(N[C@H](CCN5CCOCC5)CSc5ccccc5)c(S(=O)(=O)C(F)(F)F)c4)cc3)CC2)C1 [NAVITOCLAX]
// result > 2 µM

Others:
// query Identify measured IC50 corresponding to `O=S(=O)(O)c1ccc2cc(/N=N/c3cc(S(=O)(=O)O)c4cccnc4c3O)ccc2c1`
// result > 16 µM

// query Identify measured IC50 corresponding to CCCCCCCCCCCC1=C(O)C(=O)C=C(O)C1=O [EMBELIN]
// result 7.98 µM

// query Identify measured IC50 corresponding to O=C(NCCCNc1nc(Nc2cccc(NC(=O)N3CCCC3)c2)ncc1I)c1cccs1 [BX-795]
// result > 5 µM

// query Identify measured IC50 corresponding to Cc1ccc(C(=O)Nc2ccc(CN3CCN(C)CC3)c(C(F)(F)F)c2)cc1C#Cc1cnc2cccnn12 [PONATINIB]
// result > 0.512 µM

// query Identify measured IC50 corresponding to `OC[C@H](Cc1ccccc1)Nc1nc(Oc2ccc3c(c2)CCC3)nc2c1ncn2Cc1ccc(-c2ccccc2)cc1`
// result > 10.2 µM

###

- Tested on: KARPAS-299
- experiment notes: cells
- Format: functional, cell-based, Homo sapiens
- assay conditions: karpas-299
- Description: SANGER: Inhibition of human KARPAS-299 cell growth in a cell viability assay.
Where a SMILES comes first, the peptide text is derived from it. The star is where a group is joined. Cbz = O=C(OCc1ccccc1)*
property: IC50

// query Identify measured IC50 corresponding to CC(C)C[C@@H](C=O)NC(=O)[C@H](CC(C)C)NC(=O)[C@H](CC(C)C)NC(=O)OCc1ccccc1 [MG-132] (Cbz-Leu-Leu-Leu-aldehyde)
// result > 1000 nM

###

- Test system: SBC-5;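 further: cell viability assay read-out, IC50 is the concentration that inhibits growth of the cells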
- experiment notes: cells
- Assay type: functional, cell-based
- assay conditions: Homo sapiens
- Description: SANGER: Inhibition of human SBC-5 cell growth in a cell viability assay.
pIC50: −log10 of the molar value.
property: pIC50

Study these solved cases before continuing.
// query Identify measured pIC50 corresponding to `CC1(C)CCC(c2ccc(Cl)cc2)=C(CN2CCN(c3ccc(C(=O)NS(=O)(=O)c4ccc(N[C@H](CCN5CCOCC5)CSc5ccccc5)c(S(=O)(=O)C(F)(F)F)c4)cc3)CC2)C1`
// result < 5.70

// query Identify measured pIC50 corresponding to `OC[C@H](Cc1ccccc1)Nc1nc(Oc2ccc3c(c2)CCC3)nc2c1ncn2Cc1ccc(-c2ccccc2)cc1`
// result < 4.99

Others:
// query Identify measured pIC50 corresponding to `CS(=O)(=O)N1CCN(Cc2cc3nc(-c4cccc5[nH]ncc45)nc(N4CCOCC4)c3s2)CC1`
// result < 5.40

// query Identify measured pIC50 corresponding to `CN(C)CCOc1ccc(-c2nc(-c3ccncc3)c(-c3ccc4c(c3)CC/C4=N\O)[nH]2)cc1`
// result < 5.30

// query Identify measured pIC50 corresponding to `CN(NC(=O)CC(=O)NN(C)C(=S)c1ccccc1)C(=S)c1ccccc1`
// result 7.67

Where do these numbers come from? They come from ChEMBL document CHEMBL1201861.
